target: UniProt:P35408
Sequence (P35408 whole entry): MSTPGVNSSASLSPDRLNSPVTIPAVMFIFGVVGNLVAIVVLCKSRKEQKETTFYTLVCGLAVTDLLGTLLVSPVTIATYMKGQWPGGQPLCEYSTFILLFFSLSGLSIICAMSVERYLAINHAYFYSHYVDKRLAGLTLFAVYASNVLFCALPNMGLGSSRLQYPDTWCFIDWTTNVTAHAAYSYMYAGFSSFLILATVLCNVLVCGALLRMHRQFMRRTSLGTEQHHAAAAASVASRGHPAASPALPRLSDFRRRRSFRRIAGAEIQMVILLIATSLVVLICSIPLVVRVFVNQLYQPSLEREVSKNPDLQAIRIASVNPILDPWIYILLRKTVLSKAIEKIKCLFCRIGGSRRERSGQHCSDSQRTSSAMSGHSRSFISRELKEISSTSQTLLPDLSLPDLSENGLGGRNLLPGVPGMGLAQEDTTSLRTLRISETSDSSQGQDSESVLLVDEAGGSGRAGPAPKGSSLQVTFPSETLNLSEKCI
Observable: pIC50
One number for each entry, as −log10 of the molar value.

The following molecules have reported results that may help.
[[record]]
molecule = "COC(=O)CSCCCS[C@H]1C(=O)C[C@@H](CO)[C@@H]1/C=C/C(O)CCc1ccc2ccccc2c1 (single isomer, unassigned) [drawing 38]"
reported_result = 5.80

[[record]]
molecule = "O=C(O)CSCCCS[C@H]1C(=O)C[C@@H](CO)[C@@H]1/C=C/C(O)CCc1cc2ccccc2s1 (single isomer, unassigned) [drawing 32]"
reported_result = 7.00


Batch of 3 molecules: report pIC50 for each.
1. O=C(O)CSCCCS[C@H]1C(=O)CC[C@@H]1/C=C/C(O)CCc1cc2ccccc2s1 (stereo partly drawn) [drawing 26]
2. O=C(O)CSCCCS[C@H]1C(=O)CC[C@@H]1/C=C/C(O)CCc1ccc2ccccc2c1 (single isomer, unassigned) [drawing 36]
3. O=C(O)CSCCCS[C@H]1C(=O)C[C@@H](CO)[C@@H]1/C=C/C(O)CCc1cc2ccccc2s1 (single isomer, unassigned) [drawing 31]

7.35
6.85
5.89

For COC(=O)CSCCCS[C@H]1C(=O)CC[C@@H]1/C=C/C(O)CCc1cc2ccccc2s1 (stereo partly drawn) [drawing 28] , write its pIC50.
6.52
